TARGET OR SYSTEM: human CB1 receptors (Homo sapiens (Human))
Sequence (P21554 whole entry): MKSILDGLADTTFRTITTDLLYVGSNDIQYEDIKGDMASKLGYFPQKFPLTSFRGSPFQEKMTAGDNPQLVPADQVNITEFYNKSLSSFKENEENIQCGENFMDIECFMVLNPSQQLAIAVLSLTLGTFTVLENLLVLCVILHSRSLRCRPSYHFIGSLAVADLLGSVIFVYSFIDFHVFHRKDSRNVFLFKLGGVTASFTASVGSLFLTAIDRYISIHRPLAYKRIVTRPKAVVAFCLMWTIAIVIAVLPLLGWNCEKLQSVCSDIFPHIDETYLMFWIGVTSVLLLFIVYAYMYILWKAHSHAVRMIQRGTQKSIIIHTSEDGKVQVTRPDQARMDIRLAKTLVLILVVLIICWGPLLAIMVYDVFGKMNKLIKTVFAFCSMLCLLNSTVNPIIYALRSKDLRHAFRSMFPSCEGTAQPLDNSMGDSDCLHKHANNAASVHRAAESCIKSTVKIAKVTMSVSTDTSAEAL
ASSAY DETAILS: cAMP assay, CHO cells expressing human CB1 receptors
Format: cell-based
CONDITION SUMMARY: CHO cells expressing human CB1, cAMP; read-out: human CB1 EC50
QUANTITY MEASURED: pEC50
Give only the number. pEC50 is defined as minus log10 of concentration in molar units.

Solved cases (3 shown):
COMPOUND	pEC50
CC(C)C[C@H](NC(=O)c1ccc(C2CC2)c(OCC2CC2)n1)C(N)=O [Example 100]	6.10
CC(C)C[C@H](NC(=O)c1ccc(C2CCOC2)c(OCC2CC2)n1)C(N)=O (some centres unmarked) [Example 114]	6.15
CCC(CC)(NC(=O)c1ccc(C(F)(F)F)c(OCC2CCOCC2)n1)C(=O)OC [Example 238]	6.84

pEC50 of Cc1nc(C(C)(C)NC(=O)c2ccc(C3CC3)c(-c3cccc(Cl)c3)n2)no1 [Example 96] , assay on human CB1 receptors (Homo sapiens (Human)), is 5.84

pEC50 of O=C(NC(c1ccccn1)C(F)(F)F)c1ccc(C2CC2)c(OCC2CCOCC2)n1 (centres unmarked) [Example 223] , assay on human CB1 receptors (Homo sapiens (Human)), is 6.18
